- assay comment: in vivo
- conditions: male, Sprague-Dawley, rat, po, 10 mg/kg
Respond with TRUE for half-life values of 4 h and above, FALSE for values below.

molecule="O=C(NCc1ccccn1)C(=O)[C@@H](Cc1ccccc1)NC(=O)[C@H]1COCCN1C(=O)C1CCC(F)(F)CC1 [Compound 288]" category_label=FALSE
molecule="C[C@@H](NC(=O)CC1CC1(F)F)C(=O)N[C@H](Cc1ccccc1)C(=O)C(=O)NCc1cscn1 (stereo partly shown) [Compound 417]" category_label=TRUE
molecule="O=C(CNC(=O)C1CC12CCC(F)(F)CC2)N[C@H](Cc1ccccc1)C(=O)C(=O)NCc1ccccn1 (stereo partly shown) [Compound 333]" category_label=TRUE
molecule="O=C(NCc1ccccn1)C(=O)[C@@H](Cc1ccccc1)NC(=O)[C@H]1COCCN1C(=O)CC1CCC(F)(F)CC1 [Compound 289]" category_label=FALSE
molecule="O=C(NCc1ccccn1)C(=O)[C@@H](Cc1ccccc1)NC(=O)[C@H]1COCCN1C(=O)[C@H](NC(=O)c1cnccn1)C1CCCCC1 [Compound 290]" category_label=FALSE
molecule="C[C@@H](NC(=O)C1CCC(F)(F)CC1)C(=O)N[C@H](Cc1ccccc1)C(=O)C(=O)NCc1ccccn1 [Compound 145]" category_label=FALSE
molecule="O=C(CNC(=O)C1CCC(F)(F)CC1)N[C@H](Cc1ccccc1)C(=O)C(=O)NCc1ccccn1 [Compound 155]" category_label=FALSE

====

Recorded IC50 values for a group of molecules are listed next.
- tested target: recombinant SARS-CoV-2 M^pro (Severe acute respiratory syndrome coronavirus 2 (2019-nCoV) (SARS-CoV-2))
- assay comment: Inhibition of SARS-CoV-2 M^pro enzyme activity (fluorescent substrate assay)
- Format: biochemical
- conditions: inhibition of SARS-CoV-2 M^pro enzyme activity; values in nM; read-out: IC50
outcome measure: IC50 (nM)

molecule=CC(C)(OCc1ccc(F)cc1)C(=O)N[C@H](Cc1ccccc1)C(=O)C(=O)NCc1nccs1 reported=95.7
molecule=O=C(NCc1ccccn1)C(=O)[C@@H](Cc1ccccc1)NC(=O)[C@H]1Cc2ccccc2CN1C(=O)NCC1CC(F)(F)C1 reported=12.4
molecule=Cc1cccnc1CNC(=O)C(=O)[C@@H](Cc1ccccc1)NC(=O)[C@@H](C)NC(=O)C1CCC(F)(F)CC1 reported=76.2
molecule="C[C@@H](NC(=O)C1CCc2cc(F)ccc2O1)C(=O)N[C@H](Cc1ccccc1)C(=O)C(=O)NCc1ccccn1 (some centres unmarked)" reported=56.7
molecule="COC[C@@H](NC(=O)C1CCC(F)(F)CC1)C(=O)N[C@H](Cc1ccccc1)C(=O)C(=O)NCc1nccs1 [Compound 393]" reported=88.2
molecule=Cc1cnc(CNC(=O)C(=O)[C@@H](Cc2ccccc2)NC(=O)[C@@H](C)NC(=O)C2CCC(F)(F)CC2)s1 reported=43.1
molecule=C[C@@H](NC(=O)[C@@H]1C[C@@H]2[C@H](C1)C2(F)F)C(=O)N[C@H](Cc1ccccc1)C(=O)C(=O)NCc1nccs1 reported=80
molecule=O=C(NCc1nccs1)C(=O)[C@@H](Cc1ccccc1)NC(=O)C1(NC(=O)C2CCC(F)(F)CC2)CCCCC1 reported=52.4
molecule=C[C@@H](NS(=O)(=O)c1cccnc1)C(=O)N[C@H](Cc1ccccc1)C(=O)C(=O)NCc1ccccn1 reported=888
molecule=N#Cc1ccc(OCC(=O)NC2(C(=O)N[C@H](Cc3ccccc3)C(=O)C(=O)NCc3ccccn3)CCC2)cc1 reported=37.1
molecule=C[C@@H](NC(=O)N1CCC(F)(F)CC1)C(=O)N[C@H](Cc1ccccc1)C(=O)C(=O)NCc1nccs1 reported=95.9
molecule=CC(C)(NC(=O)c1ccc(F)cc1)C(=O)N[C@H](Cc1ccccc1)C(=O)C(=O)NCc1ccccn1 reported=18.6
molecule=CC(C)[C@@H](NC(=O)c1ccc(F)cc1)C(=O)N[C@H](Cc1ccccc1)C(=O)C(=O)NCc1ccccn1 reported=38.2
molecule="C[C@@H](NC(=O)C1CCCC(F)(F)C1)C(=O)N[C@H](Cc1ccccc1)C(=O)C(=O)NCc1cscn1 (some centres unmarked)" reported=19

====

- assay comment: In vivo pharmacokinetic properties in rats
- conditions: SD rats, p.o. 10 mg/kg
outcome measure: F % (%)

compound=COC[C@@H](NC(=O)CC1CC(F)(F)C1)C(=O)N[C@H](Cc1ccccc1)C(=O)C(=O)NCc1nccs1 result_units=% reported=45.77
compound=COC[C@@H](NC(=O)C1CCC(F)(F)CC1)C(=O)N[C@H](Cc1ccccc1)C(=O)C(=O)NCc1nccs1 result_units=% reported=49.23
compound="C[C@@H](NC(=O)C1CCC(F)(F)C1)C(=O)N[C@H](Cc1ccccc1)C(=O)C(=O)NCc1nccs1 (stereo partly shown)" result_units=% reported=52.01
compound=C[C@@H](NC(=O)C1CCC(F)(F)CC1)C(=O)N[C@H](Cc1ccccc1)C(=O)C(=O)NCc1nccs1 result_units=% reported=25.39

====

- tested target: recombinant SARS-CoV-2 M^pro (Severe acute respiratory syndrome coronavirus 2 (2019-nCoV) (SARS-CoV-2), UniProt P0DTD1)
- assay comment: Inhibition of SARS-CoV-2 M^pro enzyme activity (fluorescent substrate assay)
- Format: biochemical
- conditions: inhibition of SARS-CoV-2 M^pro enzyme activity; values in nM; read-out: IC50
outcome measure: log10 of IC50 (log10 of the value in nM)

item_smiles=C[C@@H](NCC1CCC(F)(F)CC1)C(=O)N[C@H](Cc1ccccc1)C(=O)C(=O)NCc1nccs1 reported=2.95
item_smiles=C[C@@H](NC(=O)C1CCC(F)(F)CC1)C(=O)N[C@H](Cc1ccccc1F)C(=O)C(=O)NCc1ccccn1 reported=1.43
item_smiles=C[C@@H](NC(=O)Cc1cc(F)cc(F)c1)C(=O)N[C@H](Cc1ccccc1)C(=O)C(=O)NCc1ccccn1 reported=1.04
item_smiles=C[C@@H](OCc1ccccc1)C(=O)N[C@H](Cc1ccccc1)C(=O)C(=O)NCc1ccc(C(F)(F)F)cn1 reported=2.90
item_smiles=O=C(NCc1ccccn1)C(=O)[C@@H](Cc1ccccc1)NC(=O)[C@@H](Cc1ccccc1)NC(=O)[C@H]1CC[C@H](C(F)(F)F)CC1 reported=1.21
item_smiles=C[C@@H](NC(=O)CC1CC(F)(F)C1)C(=O)N[C@H](Cc1ccccc1)C(=O)C(=O)NCc1nccs1 reported=1.33
item_smiles=O=C(CNC(=O)c1cccc(F)c1)N[C@H](Cc1ccccc1)C(=O)C(=O)NCc1nccs1 reported=2.73

====

- tested target: recombinant SARS-CoV-2 M^pro (Severe acute respiratory syndrome coronavirus 2 (2019-nCoV) (SARS-CoV-2))
- assay comment: Inhibition of SARS-CoV-2 M^pro enzyme activity (fluorescent substrate assay)
- Format: biochemical
- conditions: inhibition of SARS-CoV-2 M^pro enzyme activity; values in nM; read-out: IC50
Recorded IC50 values for a group of compounds are listed next.
outcome measure: IC50 (nM)

compound=O=C(CC1CCC(F)(F)CC1)NCC(=O)N[C@H](Cc1ccccc1)C(=O)C(=O)NCc1ccccn1 result_units=nM reported=12.2
compound=O=C(NCc1ccccn1)C(=O)[C@@H](Cc1ccccc1)NC(=O)C1(NC(=O)C2(F)CCCCC2)CC1 result_units=nM reported=10.7
compound=O=C(CNC(=O)C1CCC(F)(F)CC1)N[C@H](Cc1cccc(Cl)c1)C(=O)C(=O)NCc1ccccn1 result_units=nM reported=59.9
compound=C[C@@H](NC(=O)[C@H]1CC[C@@H](NC(=O)OC(C)(C)C)CC1)C(=O)N[C@H](Cc1ccccc1)C(=O)C(=O)NCc1ccccn1 result_units=nM reported=198
compound=O=C(NCc1ccccn1)C(=O)[C@@H](Cc1ccccc1)NC(=O)[C@H]1CC(F)(F)CN1C(=O)CC1CCC(F)(F)CC1 result_units=nM reported=13
compound="CC(C(=O)N[C@H](C)C(=O)N[C@H](Cc1ccccc1)C(=O)C(=O)NCc1ccccn1)C1CCCCC1 (some centres unmarked)" result_units=nM reported=98.6
compound=O=C(NCc1nccs1)C(=O)[C@@H](Cc1ccccc1)NC(=O)C1(NC(=O)C2CCC(F)(F)CC2)CCCC1 result_units=nM reported=51.8
compound=CC(C)(NC(=O)c1cc(Cl)cc(OC(F)(F)F)c1)C(=O)N[C@H](Cc1ccccc1)C(=O)C(=O)NCc1ccccn1 result_units=nM reported=16.6
compound=O=C(NCc1ccccn1)C(=O)[C@@H](Cc1ccccc1)NC(=O)[C@H](NC(=O)C1CCC(F)(F)CC1)C1CCCC1 result_units=nM reported=16
compound=COc1ccc(CCC(=O)N[C@H](C)C(=O)N[C@H](Cc2ccccc2)C(=O)C(=O)NCc2ccccn2)cc1 result_units=nM reported=17.3
compound="O=C(NCc1ccccn1)C(=O)[C@@H](Cc1ccccc1)NC(=O)C1(NC(=O)C2CCC(F)(F)CC2)CC1 [Compound 159]" result_units=nM reported=21.5
compound=O=C(Cc1ccccc1)N[C@H](Cc1ccccc1)C(=O)C(=O)NCc1nccs1 result_units=nM reported=949
compound=C[C@@H](OCc1ccc(Cl)c(Cl)c1)C(=O)N[C@H](Cc1ccccc1)C(=O)C(=O)NCc1ccc(Cl)cn1 result_units=nM reported=21.7
compound="COC[C@@H](NC(=O)C1CCCC(F)(F)C1)C(=O)N[C@H](Cc1cccc(Cl)c1)C(=O)C(=O)NCc1nccs1 (some centres unmarked)" result_units=nM reported=33.2

// provenance: patent US20250064789A1
